Target: Phosphatidylinositol 4,5-bisphosphate 3-kinase catalytic subunit gamma isoform (Homo sapiens, UniProt P48736)
Sequence (P48736 whole entry, canonical isoform): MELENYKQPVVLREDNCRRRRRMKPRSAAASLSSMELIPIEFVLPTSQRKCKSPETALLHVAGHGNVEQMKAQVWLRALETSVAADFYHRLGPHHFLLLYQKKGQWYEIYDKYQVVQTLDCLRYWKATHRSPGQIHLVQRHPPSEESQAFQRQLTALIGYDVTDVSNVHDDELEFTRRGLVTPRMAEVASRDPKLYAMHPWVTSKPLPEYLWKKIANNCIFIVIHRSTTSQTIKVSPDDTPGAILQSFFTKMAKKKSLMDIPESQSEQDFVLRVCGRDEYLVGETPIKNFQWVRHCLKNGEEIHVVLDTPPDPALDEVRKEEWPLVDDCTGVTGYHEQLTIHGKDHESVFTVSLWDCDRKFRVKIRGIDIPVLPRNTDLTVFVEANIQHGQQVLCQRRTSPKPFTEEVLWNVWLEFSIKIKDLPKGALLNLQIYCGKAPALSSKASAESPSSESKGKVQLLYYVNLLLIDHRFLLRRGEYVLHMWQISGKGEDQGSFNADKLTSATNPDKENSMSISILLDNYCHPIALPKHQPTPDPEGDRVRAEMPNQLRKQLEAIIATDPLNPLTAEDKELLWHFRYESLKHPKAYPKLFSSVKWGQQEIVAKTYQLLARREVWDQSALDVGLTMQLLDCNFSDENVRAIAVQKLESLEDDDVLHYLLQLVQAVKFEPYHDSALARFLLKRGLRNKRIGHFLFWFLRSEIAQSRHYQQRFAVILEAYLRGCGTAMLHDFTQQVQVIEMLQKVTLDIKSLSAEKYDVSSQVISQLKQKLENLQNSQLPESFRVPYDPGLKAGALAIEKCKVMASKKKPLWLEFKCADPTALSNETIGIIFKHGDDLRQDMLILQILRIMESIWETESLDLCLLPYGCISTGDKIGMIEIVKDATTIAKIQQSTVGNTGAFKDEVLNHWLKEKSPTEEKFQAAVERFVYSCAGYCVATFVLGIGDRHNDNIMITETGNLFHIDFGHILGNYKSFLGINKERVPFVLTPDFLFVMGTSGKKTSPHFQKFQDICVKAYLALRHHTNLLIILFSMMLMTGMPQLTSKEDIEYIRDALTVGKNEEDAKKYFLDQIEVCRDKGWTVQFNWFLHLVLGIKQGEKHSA
Assay: Inhibition of PI3Kgamma (unknown origin) by ADP-Glo luminescent kinase assay
pIC50: −log10 of the molar value.
PROPERTY NAME: pIC50

>  <SMILES REPRESENTATION>
C[C@H](NC(=O)c1cnc2ccc(-c3ccc4oc(N)nc4c3)cn12)C(N)=O

>  <REPORTED MEASUREMENT>
6.63

$$$$

[a] Nc1nc2cc(-c3ccc4ncc(C(=O)N5CCOCC5)n4c3)ccc2o1
[b] Nc1nc2cc(-c3ccc4ncc(N5C[C@@H]6OCCO[C@@H]6C5)nc4c3)ccc2o1
Query: For this pair, a and b , which shows a numerically higher pIC50? // respond with label for picked entry
Reply: b
(b: 6.70, a: 6.40)

====

Assay: Half life in Sprague-Dawley rat at 5 mg/kg, iv measured upto 24 hrs by LC-MS analysis
Type: ADME, organism-based
Conditions: in vivo
PROPERTY NAME: half-life (h)

>  <COMPOUND>
Nc1nc2cc(-c3ccc4ncc(N5C[C@@H]6OCCO[C@@H]6C5)nc4c3)ccc2o1

>  <PROPERTY NAME>
half-life

>  <REPORTED MEASUREMENT>
5.8

$$$$
>  <COMPOUND>
Nc1nc2cc(-c3ccc4ncc(C(=O)N5CCOCC5)n4c3)ccc2o1 [SERABELISIB]

>  <PROPERTY NAME>
half-life

>  <REPORTED MEASUREMENT>
5.9

$$$$

====

Molecular target: Serine/threonine-protein kinase mTOR (Homo sapiens, UniProt P42345)
PROPERTY NAME: IC50 (nM)
Give the quantity in nM, number only.

Field IC50 (system: Serine/threonine-protein kinase mTOR (Homo sapiens, UniProt P42345)) for entry Nc1nc2cc(-c3ccc4ncc(N5C[C@@H]6OCCO[C@@H]6C5)nc4c3)ccc2o1 = 601

====

Assay: Cmax in Sprague-Dawley rat at 5 mg/kg, iv measured upto 24 hrs by LC-MS analysis
Format: ADME, organism-based
Details: in vivo
PROPERTY NAME: Cmax (ng/mL)

[P] Nc1nc2cc(-c3ccc4ncc(N5C[C@@H]6OCCO[C@@H]6C5)nc4c3)ccc2o1
[Q] Nc1nc2cc(-c3ccc4ncc(C(=O)N5CCOCC5)n4c3)ccc2o1 [SERABELISIB]
Query: For this pair, P and Q , which shows a numerically higher Cmax? // respond with label for picked entry
Reply: P

====

Target: Phosphatidylinositol 4,5-bisphosphate 3-kinase catalytic subunit alpha isoform (Homo sapiens, UniProt P42336)
Sequence (P42336 whole entry, canonical isoform): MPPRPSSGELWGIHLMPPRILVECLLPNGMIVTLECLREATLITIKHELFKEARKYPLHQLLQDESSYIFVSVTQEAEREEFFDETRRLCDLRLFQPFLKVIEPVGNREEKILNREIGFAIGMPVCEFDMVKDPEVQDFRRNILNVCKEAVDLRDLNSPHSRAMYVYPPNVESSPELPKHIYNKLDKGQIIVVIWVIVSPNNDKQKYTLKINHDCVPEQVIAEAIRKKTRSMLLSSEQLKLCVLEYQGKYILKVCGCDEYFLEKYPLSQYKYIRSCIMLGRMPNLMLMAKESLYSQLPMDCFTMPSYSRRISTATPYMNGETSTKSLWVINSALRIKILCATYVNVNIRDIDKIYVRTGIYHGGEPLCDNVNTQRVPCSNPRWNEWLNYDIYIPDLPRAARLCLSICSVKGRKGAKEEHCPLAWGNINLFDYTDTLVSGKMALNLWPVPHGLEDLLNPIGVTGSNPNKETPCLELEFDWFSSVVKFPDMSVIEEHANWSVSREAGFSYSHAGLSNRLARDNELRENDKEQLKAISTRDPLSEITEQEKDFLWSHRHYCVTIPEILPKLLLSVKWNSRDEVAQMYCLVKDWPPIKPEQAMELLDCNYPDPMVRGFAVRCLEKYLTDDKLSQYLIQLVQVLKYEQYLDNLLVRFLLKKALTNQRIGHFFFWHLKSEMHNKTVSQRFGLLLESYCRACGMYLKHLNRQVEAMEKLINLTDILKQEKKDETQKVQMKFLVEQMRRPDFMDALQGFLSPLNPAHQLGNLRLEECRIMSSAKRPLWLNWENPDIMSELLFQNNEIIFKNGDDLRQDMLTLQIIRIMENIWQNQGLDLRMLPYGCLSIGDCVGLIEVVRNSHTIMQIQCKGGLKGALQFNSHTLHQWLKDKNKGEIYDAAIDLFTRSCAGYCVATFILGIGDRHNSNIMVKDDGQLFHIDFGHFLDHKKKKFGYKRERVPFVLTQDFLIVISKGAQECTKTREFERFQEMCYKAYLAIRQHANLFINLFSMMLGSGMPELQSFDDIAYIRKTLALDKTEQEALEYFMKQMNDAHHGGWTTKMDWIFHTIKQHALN
Test: Inhibition of PI3Kalpha (unknown origin) by ADP-Glo luminescent kinase assay
PROPERTY NAME: IC50 (nM)

Known IC50 results, listed for orientation:
>  <COMPOUND>
NC(=O)[C@@H](NC(=O)c1cnc2ccc(-c3ccc4oc(N)nc4c3)cn12)c1ccccc1

>  <READOUT UNIT>
nM

>  <IC50>
14

$$$$
>  <COMPOUND>
Nc1nc2cc(-c3ccc4ncc(C(=O)N5C[C@@H]6OCCO[C@@H]6C5)n4c3)ccc2o1

>  <READOUT UNIT>
nM

>  <IC50>
7.2

$$$$
>  <COMPOUND>
COC1CCN(C(=O)c2cnc3ccc(-c4ccc5oc(N)nc5c4)cn23)C1 (centres undefined)

>  <READOUT UNIT>
nM

>  <IC50>
9680

$$$$
>  <COMPOUND>
Nc1nc2cc(-c3ccc4ncc(N5C[C@@H]6OCCO[C@H]6C5)nc4c3)ccc2o1

>  <READOUT UNIT>
nM

>  <IC50>
603

$$$$
>  <COMPOUND>
Nc1nc2cc(-c3ccc4ncc(C(=O)N5CCOCC5)n4c3)ccc2o1 [SERABELISIB]

>  <READOUT UNIT>
nM

>  <IC50>
11

$$$$

[A] C[C@H](Nc1ncnc2ccc(-c3ccc4oc(N)nc4c3)cc12)C(N)=O
[B] C[C@H](NC(=O)c1cnc2ccc(-c3ccc4oc(N)nc4c3)cn12)C(N)=O
[C] CCC(NC(=O)c1cnc2ccc(-c3ccc4oc(N)nc4c3)cn12)C(=O)OC (centres undefined)
[D] CN(C)C1CCN(C(=O)c2cnc3ccc(-c4ccc5oc(N)nc5c4)cn23)CC1
[E] C[C@H](Nc1cnc2ccc(-c3ccc4oc(N)nc4c3)cc2n1)C(N)=O
Query: Task field, ranking: reported IC50, descending order. Returns: the labels arranged in the requested order.
Reply: C, E, D, A, B

====

Experiment: Metabolic stability in Sprague-Dawley rat liver microsomes assessed as half life at 5 ug/ml incubated for 1 hr in presence of NADPH by LC-MS/MS analysis
Type: ADME, Microsome
Settings: dose 5 µg/ml
PROPERTY NAME: half-life at 5 ug/ml (h)

>  <SMILES REPRESENTATION>
Nc1nc2cc(-c3ccc4ncc(C(=O)N5CCOCC5)n4c3)ccc2o1

>  <PROPERTY NAME>
half-life at 5 ug/ml

>  <READOUT UNIT>
h

>  <REPORTED MEASUREMENT>
4.44

$$$$
>  <SMILES REPRESENTATION>
Nc1nc2cc(-c3ccc4ncc(N5C[C@@H]6OCCO[C@@H]6C5)nc4c3)ccc2o1

>  <PROPERTY NAME>
half-life at 5 ug/ml

>  <READOUT UNIT>
h

>  <REPORTED MEASUREMENT>
3.61

$$$$

====

Assay: MRT (0 to t) in Sprague-Dawley rat at 5 mg/kg, iv measured upto 24 hrs by LC-MS analysis
Assay type: ADME, organism-based
Conditions: in vivo
PROPERTY NAME: MRT last at 24 h (h)

[I] Nc1nc2cc(-c3ccc4ncc(C(=O)N5CCOCC5)n4c3)ccc2o1
[II] Nc1nc2cc(-c3ccc4ncc(N5C[C@@H]6OCCO[C@@H]6C5)nc4c3)ccc2o1
Query: For this pair, I and II , which shows a numerically higher MRT last at 24 h? // respond with label for picked entry
Reply: I
(I: 6.5 h, II: 1.7 h)

====

IC50 values for the compounds below.
Molecular target: Cytochrome P450 2D6 (Homo sapiens)
Sequence (P10635 whole entry): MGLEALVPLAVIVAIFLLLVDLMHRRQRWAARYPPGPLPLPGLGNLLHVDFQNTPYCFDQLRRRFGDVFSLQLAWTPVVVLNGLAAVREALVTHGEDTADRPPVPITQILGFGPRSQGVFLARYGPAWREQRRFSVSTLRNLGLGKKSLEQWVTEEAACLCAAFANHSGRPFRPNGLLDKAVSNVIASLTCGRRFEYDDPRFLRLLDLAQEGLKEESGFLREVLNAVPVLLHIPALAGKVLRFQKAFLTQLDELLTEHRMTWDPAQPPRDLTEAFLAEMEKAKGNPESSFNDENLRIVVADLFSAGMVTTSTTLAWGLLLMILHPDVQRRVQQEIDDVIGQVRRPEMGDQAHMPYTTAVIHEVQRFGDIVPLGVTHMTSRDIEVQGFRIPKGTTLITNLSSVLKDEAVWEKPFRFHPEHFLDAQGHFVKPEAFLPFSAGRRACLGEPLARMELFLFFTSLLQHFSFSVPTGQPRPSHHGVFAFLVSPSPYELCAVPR

Measured IC50, Nc1nc2cc(-c3ccc4ncc(N5C[C@@H]6OCCO[C@@H]6C5)nc4c3)ccc2o1 : > 10 µM

Measured IC50, Nc1nc2cc(-c3ccc4ncc(C(=O)N5CCOCC5)n4c3)ccc2o1 [SERABELISIB] : > 10 µM

====

Assay: Volume of distribution in Sprague-Dawley rat at 5 mg/kg, iv measured upto 24 hrs by LC-MS analysis
Format: ADME, organism-based
Conditions: in vivo
PROPERTY NAME: Vd (L/kg)

>  <SMILES REPRESENTATION>
Nc1nc2cc(-c3ccc4ncc(C(=O)N5CCOCC5)n4c3)ccc2o1

>  <Vd / L/kg>
5.6

$$$$
>  <SMILES REPRESENTATION>
Nc1nc2cc(-c3ccc4ncc(N5C[C@@H]6OCCO[C@@H]6C5)nc4c3)ccc2o1

>  <Vd / L/kg>
5.2

$$$$

====

Biological target: Phosphatidylinositol 4,5-bisphosphate 3-kinase catalytic subunit alpha isoform (Homo sapiens, UniProt P42336)
Assay: Inhibition of PI3Kalpha (unknown origin) by ADP-Glo luminescent kinase assay
pIC50: −log10 of the molar value.
PROPERTY NAME: pIC50

Known pIC50 results, listed for orientation:
>  <COMPOUND>
Nc1nc2ccc(-c3ccc4ncc(C(=O)N5CCOC(CO)C5)n4c3)cc2o1 (single isomer, unassigned)

>  <pIC50>
7.73

$$$$
>  <COMPOUND>
Nc1nc2cc(-c3ccc4ncc(NCC(=O)NO)nc4c3)ccc2o1

>  <pIC50>
6.97

$$$$
>  <COMPOUND>
NC(=O)[C@@H]1CCCN1C(=O)c1cnc2ccc(-c3ccc4oc(N)nc4c3)cn12

>  <pIC50>
7.74

$$$$

[a] NC(=O)CNc1cnc2ccc(-c3ccc4oc(N)nc4c3)cc2n1
[b] NC(=O)CNc1ncnc2ccc(-c3ccc4oc(N)nc4c3)cc12
[c] Nc1nc2cc(-c3ccc4ncc(C(=O)N5CCNCC5)n4c3)ccc2o1
[d] NC(=O)CNc1cnc2cc(-c3ccc4oc(N)nc4c3)ccc2n1
[e] CN(C)C1CCN(C(=O)c2cnc3ccc(-c4ccc5oc(N)nc5c4)cn23)C1 (centres undefined)
Query: Give the ascending ranking of the items by reported pIC50. Returns: the labels arranged in the requested order.
Reply: d, c, b, e, a
(d: 6.32, c: 6.86, b: 7.59, e: 7.97, a: 8.42)

====

Target: Cytochrome P450 3A4 (Homo sapiens, UniProt P08684)
Sequence (P08684 whole entry): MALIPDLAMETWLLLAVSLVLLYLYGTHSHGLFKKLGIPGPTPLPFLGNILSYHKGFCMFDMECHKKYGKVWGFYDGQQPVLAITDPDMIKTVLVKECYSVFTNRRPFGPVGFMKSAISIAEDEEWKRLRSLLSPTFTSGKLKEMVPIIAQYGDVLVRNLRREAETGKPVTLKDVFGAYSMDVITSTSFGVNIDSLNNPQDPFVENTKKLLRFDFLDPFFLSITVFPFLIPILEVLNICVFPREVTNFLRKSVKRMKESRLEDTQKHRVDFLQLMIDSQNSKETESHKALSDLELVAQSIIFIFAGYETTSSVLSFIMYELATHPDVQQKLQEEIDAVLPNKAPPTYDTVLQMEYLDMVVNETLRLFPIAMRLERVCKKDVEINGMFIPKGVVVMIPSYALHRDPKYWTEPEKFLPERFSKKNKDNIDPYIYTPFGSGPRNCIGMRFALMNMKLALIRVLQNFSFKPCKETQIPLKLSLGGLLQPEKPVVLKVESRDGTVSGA
PROPERTY NAME: IC50

Measured IC50, Nc1nc2cc(-c3ccc4ncc(C(=O)N5CCOCC5)n4c3)ccc2o1 [SERABELISIB] : > 10 µM

====

Assay: Clearance in Sprague-Dawley rat at 5 mg/kg, iv measured upto 24 hrs by LC-MS analysis
Type: ADME, organism-based
Conditions: in vivo
PROPERTY NAME: clearance (mL/min/kg)

>  <SMILES REPRESENTATION>
Nc1nc2cc(-c3ccc4ncc(C(=O)N5CCOCC5)n4c3)ccc2o1

>  <REPORTED MEASUREMENT>
11.7

$$$$
>  <SMILES REPRESENTATION>
Nc1nc2cc(-c3ccc4ncc(N5C[C@@H]6OCCO[C@@H]6C5)nc4c3)ccc2o1

>  <REPORTED MEASUREMENT>
10

$$$$
